In this section we review reported TGI values for a set of molecules.
Tested on: ACHN renal
Method: NCI tumour cell line growth inhibition, 48 h

Molecule	TGI
O=C(c1cc(-c2cc3c(cc2C(=O)N2Cc4ccccc4C[C@H]2CN2CCOCC2)OCO3)n2c1CCCC2)N(c1ccccc1)c1ccc(O)cc1	> 100 µM
O=C(N/N=C/c1ccc(O)cc1O)c1ccc(Nc2ccnc(C(F)(F)F)c2)cc1	> 100 µM
CCOC(=O)c1cc2cc(CSc3ccccc3)ccc2oc1=O	> 100 µM
COc1cc(-c2cn(-c3ccc(Cl)cc3)c(=O)[nH]2)cc(OC)c1OC	> 100 µM
Cc1ccc(N2C(=O)CC(=O)N(NC(=O)C(C)Oc3ccccc3C)C2=S)cc1 (stereo not drawn)	> 100 µM

Query: Could you tell me which TGI is on file for Cn1c2ccccc2c2nnc(N/N=C/c3ccccn3)nc21 ?
Response: > 21.4 µM

Query: // next record CC1(C)SC2C(NC(=O)Cc3ccccc3)C(=O)N2C1C(=O)O (stereo not drawn)
Response: > 100 µM

Query: What about this molecule? CCCCCC(/C=N/NC(N)=S)C(O)(C(F)(F)F)C(F)(F)F (stereo not drawn)
Response: > 10 µM

Query: Repeat with C=C(CN1CCN(c2ccccc2F)CC1)c1ccc(C(=O)Nc2ccccc2N)cc1
Response: > 100 µM

Query: Consider next the molecule CC1CSc2nc3[nH]c(=S)[nH]c3c(=O)n2C1 (stereo not drawn) in the same way.
Response: > 100 µM

Query: Likewise for CC(=O)NC1CCC(NC(=O)OC(C)(C)C)C(NC(=O)OC(C)(C)C)C1 (stereo not drawn) ?
Response: > 100 µM

Query: Lookup Nc1ncc(-c2ccc(C(F)(F)F)cc2)c(NC2CCCCCC2)n1
Response: > 100 µM

###

Test system: HS 578T breast
Method: NCI tumour cell line growth inhibition, 48 h
Measured TGI values are reported for all entries that follow.

Compound	TGI
C=C1CC(CNc2cc(Cl)nc(N)n2)C1	> 100 µM

Query: Can you look up the measured TGI of CCOC(=O)NC(N(C)C(C(C)C)P(=O)(OCC)OCC)(C(F)(F)F)C(F)(F)F (configuration not stated) for me?
Response: > 100 µM

Query: Also need NNC(=O)CCCCCCCC(=O)O , thanks.
Response: > 100 µM

Query: How about this compound: CCOC(=O)C(Cc1c[nH]c2cc([N+](=O)[O-])ccc12)(NC(C)=O)C(=O)OCC
Response: > 798 µM

Query: Proceed to CC1(C)N=C(N)N=C(N)N1c1cccc(CCCCc2ccc(S(=O)(=O)F)cc2Cl)c1
Response: > 100 µM

Query: For COc1ccc(C(=O)/C=C/c2cc(C(=O)c3cc(OC)c(OC)c(OC)c3)ccc2OC)cc1 then?
Response: > 100 µM

###

Tested on: HOP-62 NSCLC
Method: NCI tumour cell line growth inhibition, 48 h
Entries and their TGI

Example entries and their recorded answers appear below.
Compound	TGI
CC1(C)OC2CN(C(=O)OCc3ccccc3)C(CO)C2O1 (stereo not given)	> 100 µM
C=C1C(C[C@@H]2O[C@H]3C[C@H]4O[C@@]5(C[C@@H]6O[C@]7(C[C@H](C)[C@@H]8O[C@@H]9CC(C(O)CO)O[C@@H]9C[C@@H]8O7)C[C@H](C)[C@@H]6O5)C[C@H]4O[C@H]3[C@H](C)[C@H]2O)O[C@@H](CC[C@@H]2O[C@@H](CC[C@@]34CC5O[C@H]6C(O[C@H]7CC[C@H](CC(=O)OC)O[C@@H]7[C@@H]6O3)[C@H]5O4)CC2=C)C[C@H]1C (stereo not given in full)	> 1 µM
O=C(c1cc(-c2cc3c(cc2C(=O)N2Cc4ccccc4C[C@H]2CN2CCOCC2)OCO3)n2c1CCCC2)N(c1ccccc1)c1ccc(O)cc1	> 100 µM
Cc1cc(S(N)(=O)=O)c(S/C(=N\Nc2ccc([N+](=O)[O-])cc2)c2ccc(Cl)cc2)cc1Cl	> 100 µM

Query compound follows.
Query: Dear colleague, I am looking for the recorded TGI of the following compound: Fc1ccc(-c2nnc3sc(-c4cccc(Cl)c4)nn23)cc1Cl
Response: > 100 µM
